assay: HT29 colon tumor cell growth inhibition, primary screen, imaging, high content imaging, 24 h, CellTiter-Glo (AID 770); conditions: HT29 cell number by imaging, measured here: percent cells with condensed nuclei, at 10 µM, stronger effect = higher value;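 on condensed nuclei: share of cells whose nuclear area falls below control median minus 1.5 SD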
Screen size: about 3,300 compounds; fewer than 10 were called active. A selection follows.
Quick reference: condensed nuclei of the listed items.

What value of condensed nuclei has been recorded for this entry: Cn1c(=O)c2c3c(sc2n2c(SCC(N)=O)nnc12)CC(C(C)(C)C)CC3 (stereo not drawn) 3.87%

What value of condensed nuclei has been recorded for this entry: O=C1CC(c2ccccc2)NC(=O)N1 (stereo not drawn) 3.08%

What value of condensed nuclei has been recorded for this entry: CN(C)CCCN1c2ccccc2Sc2ccc(C(F)(F)F)cc21 4.92%

What value of condensed nuclei has been recorded for this entry: CCCOc1ccc(/C(O)=C2/C(=O)C(=O)N(CCN(C)C)C2c2ccncc2)cc1 (stereo not drawn) 5.23%

What value of condensed nuclei has been recorded for this entry: Cn1c(NCC(O)c2ccccc2)nc2c1c(=O)n(Cc1ccc(Cl)c(Cl)c1)c(=O)n2C (stereo not drawn) 1.95%

What value of condensed nuclei has been recorded for this entry: OCCN1CCN(CCCN2c3ccccc3Sc3ccc(C(F)(F)F)cc32)CC1 12.9%

====

experiment: HT29 colon tumor cell growth inhibition, primary screen, imaging, high content imaging, 24 h, CellTiter-Glo (AID 770); settings: HT29 cell number by imaging, at 10 µM, stronger effect = higher value
Screen size: about 3,300 compounds; fewer than 10 were called active. Not all results are given here.
Everything with growth inhibition lower than 30% is not met; everything else, including exactly 30%, is met.

Entry COc1ccc(/C(O)=C2/C(=O)C(=O)N(c3ncccn3)C2c2ccc(OC)c(OC)c2)cc1 (stereo not given) : is its growth inhibition no less than 30%? met

====

assay: HT29 colon tumor cell growth inhibition, primary screen, imaging, high content imaging, 24 h, CellTiter-Glo (AID 770); details: HT29 cell number by imaging, measured here: percent cells with condensed nuclei, at 10 µM, stronger effect = higher value;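 on condensed nuclei: share of cells whose nuclear area falls below control median minus 1.5 SD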
Fewer than 10 of roughly 3,300 compounds were called active. Not all results are given here.
So basically every entry gets a class from its condensed nuclei, ranges being low = under 3%, moderate = from 3% up to 4%, high = 4% and over

Quick check: band for CCOc1ccc(-n2c(SCc3ccc(C#N)cc3)nnc2-c2cccnc2)cc1 high

Quick check: band for O=C(O)c1c[nH]c2ccc(S(=O)(=O)N3CCOCC3)cc12 low

Quick check: band for CCCc1nc2n[nH]c(N)c2c2c1CCCC2 moderate

Quick check: band for O=C1CC(C(=O)O)c2ccccc2N1 (configuration not stated) low

Quick check: band for COC(=O)CSc1nnc(C)c(=O)[nH]1 low

Quick check: band for COc1ccc(OC)c(C2NC(=O)c3sc(=S)n(-c4ccccc4)c3N2)c1 (configuration not stated) high

Quick check: band for CC1(C)NC(=O)N(CC(O)COc2cc3ccccc3cc2C(=O)N2CCCCC2)C1=O (configuration not stated) high

Quick check: band for Cc1ccc(N2C(=O)CC3(CC4C=CC3C4)C2=O)cc1 (configuration not stated) low

Quick check: band for CC(C)c1cc(NCCCN2CCOCC2)n2c(nc3ccccc32)c1C#N high

Quick check: band for Cc1c(/C(O)=C2\C(=O)C(=O)N(CCN(C)C)C2c2cccnc2)cnn1-c1ccccc1 (configuration not stated) high

Quick check: band for N#CC(C(=O)NC1CC1)c1nc2ccccc2nc1N1CCN(C/C=C/c2ccccc2)CC1 (configuration not stated) low

Quick check: band for O=C(NCCN1CCCCC1)c1ccc(=O)oc1 low

Quick check: band for CSC1=C(C#N)C(c2ccc(C)s2)CC(=O)N1 (configuration not stated) moderate

====

Quick reference: growth inhibition of the listed items.
test: HT29 colon tumor cell growth inhibition, primary screen, imaging, high content imaging, 24 h, CellTiter-Glo (AID 770); conditions: HT29 cell number by imaging, measured here: ATP CellTiter-Glo viability, at 10 µM, stronger effect = higher value
Fewer than 10 of roughly 3,300 compounds were called active. A selection follows.
Write the value in % as a bare number.

1. COC(=O)c1ccc(C2/C(=C(/O)c3ccc(OC)cc3)C(=O)C(=O)N2c2cc(C)on2)cc1 (stereo not given) : 6.44
2. CCCCCCOc1ccc(C(=O)n2cnc(N)n2)cc1 : -15.8
3. Cc1cc(C)n(-c2ncnc3sc(C)c(C)c23)n1 : 2.85
4. O=C1C(=O)N(CCCn2ccnc2)C(c2ccccn2)/C1=C(/O)c1ccccc1 (stereo not given) : -11.5
5. CCOC(=O)CSc1nc(N)c(C#N)c(-c2ccc(OC)cc2)c1C#N : -12.5

What value of growth inhibition has been recorded for this entry: O=C1C2ON(c3ccccc3)C(c3cccnc3)C2C(=O)N1Cc1ccccc1 (stereo not given) -16.2

What value of growth inhibition has been recorded for this entry: N#Cc1c(NCCN)nc(NCc2ccccc2)c2c1CCN(Cc1ccccc1)C2 41.2

What value of growth inhibition has been recorded for this entry: CCN(CC)C(=O)COn1c(SCC(=O)N(CC)CC)nc2ccccc2c1=O -9.22

What value of growth inhibition has been recorded for this entry: CCOC(=O)c1[nH]c2cc3c(cc2c1NC(=O)CN1CCC(C)CC1)OCO3 20

What value of growth inhibition has been recorded for this entry: CCOc1ccc(-n2c(SCc3ccc(C#N)cc3)nnc2-c2cccnc2)cc1 -9.28

====

assay: HT29 colon tumor cell growth inhibition, primary screen, imaging, high content imaging, 24 h, CellTiter-Glo (AID 770); conditions: HT29 cell number by imaging, measured here: percent cells with condensed nuclei, at 10 µM, stronger effect = higher value;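 on condensed nuclei: share of cells whose nuclear area falls below control median minus 1.5 SD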
The whole screen tested about 3,300 compounds, of which fewer than 10 were called active. These entries were drawn from the full list.
READOUT_NAME: condensed nuclei

Here's what some known entries look like.
1. CN1C(=O)c2ccc(N(C)C)cc2C1=O : 1.05%
2. COc1ccccc1NC(=O)c1c(C)cc(=O)oc1C : 1.89%

What value of condensed nuclei has been recorded for this entry: O=C(C1=C(O)C(=O)N(CCCN2CCOCC2)C1c1ccccn1)c1cc2ccccc2o1 (configuration not stated) 2.31%

What value of condensed nuclei has been recorded for this entry: CN(CCOC(=O)c1cccc(Br)c1)C(C)(C)C 2.48%

What value of condensed nuclei has been recorded for this entry: Cc1ccc(NC(=O)Cn2nc(C)c3ccccc3c2=O)cc1 3.28%

====

experiment: HT29 colon tumor cell growth inhibition, primary screen, imaging, high content imaging, 24 h, CellTiter-Glo (AID 770); details: HT29 cell number by imaging, at 10 µM, stronger effect = higher value
Hit rate of the full screen: of about 3,300 compounds, fewer than 10 were called active. These entries were drawn from the full list.
READOUT_NAME: growth inhibition (%)
Write the value in % as a bare number.

1) Cc1cccc(C)c1NC(=O)CSCC(=O)c1ccc(O)c(O)c1 : 24.8
2) COc1ccc(C(=O)OC(C)CN2CCN(C)CC2)cc1OC (centres undefined) : 28.2
3) CC1(C)NC(=O)N(CC(O)COc2cc3ccccc3cc2C(=O)N2CCCCC2)C1=O (centres undefined) : 23.3

# input for lookup
What value of growth inhibition has been recorded for this entry: Cc1nc2sc(C#N)c(N)c2c2c1CCCC2 -26.7

====

assay: HT29 colon tumor cell growth inhibition, primary screen, imaging, high content imaging, 24 h, CellTiter-Glo (AID 770); settings: HT29 cell number by imaging, measured here: percent cells with condensed nuclei, at 10 µM, stronger effect = higher value;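 on condensed nuclei: share of cells whose nuclear area falls below control median minus 1.5 SD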
In all, about 3,300 compounds went through this assay and fewer than 10 were called active. A selection follows.
So basically every entry gets a class from its condensed nuclei, ranges being lower range: < 3%; middle range: ≥ 3% and < 5%; upper range: ≥ 5%

Below, 10 compounds whose answers are already recorded.
1. C=CCOc1ccc(C2/C(=C(\O)c3ccc(F)cc3)C(=O)C(=O)N2CCCN(C)C)cc1 (centres undefined) : lower range
2. CC12CN3CC(C)(CN(C1)C3c1ccc(Cl)cc1Cl)C2O (centres undefined) : lower range
3. COC(=O)C(NC(C)=O)(Nc1ccccc1)C(=O)OC : middle range
4. CN1CC(=O)Nc2ccc(F)cc2C1=O : upper range
5. CCOc1cc(C2Nc3ccccc3C(=O)N2c2ccccc2OC)ccc1O (centres undefined) : lower range
6. COc1cccc2c1C(=O)c1c(O)c3c(c(O)c1C2=O)C[C@@](O)(C(=O)CO)C[C@@H]3O[C@H]1C[C@H](N)[C@H](O)[C@H](C)O1 : lower range
7. CC(C)Sc1nc(N2CCCC2)c2c(c1C#N)CC(C)(C)OC2 : lower range
8. COc1ccc(CNC(=O)[C@H](C)NC(=O)C2CCN(S(=O)(=O)c3ccc(C)cc3)CC2)cc1 : middle range
9. C1CCC(C(CC2CCCCN2)C2CCCCC2)CC1 (centres undefined) : upper range
10. COc1ccc(S(=O)(=O)N2CCC(N3CCCCC3)CC2)cc1 : lower range

Quick check: band for O=C(c1cccc2ccccc12)N1CCC(N2CCN(c3ccccc3)CC2)CC1 middle range

Quick check: band for CC1(C)Cc2c(sc3c2C2=NCCN2C=N3)CS1 upper range

Quick check: band for CCOC(=O)NC(O)C(=O)c1cccs1 (centres undefined) lower range

Quick check: band for COc1cccc(CNc2ncc(Br)cc2Br)c1O upper range
